What pIC50 was measured for each of the following?
- System Under Test: Histone deacetylase 2 (Homo sapiens, UniProt Q92769)
- Sequence (Q92769 whole entry): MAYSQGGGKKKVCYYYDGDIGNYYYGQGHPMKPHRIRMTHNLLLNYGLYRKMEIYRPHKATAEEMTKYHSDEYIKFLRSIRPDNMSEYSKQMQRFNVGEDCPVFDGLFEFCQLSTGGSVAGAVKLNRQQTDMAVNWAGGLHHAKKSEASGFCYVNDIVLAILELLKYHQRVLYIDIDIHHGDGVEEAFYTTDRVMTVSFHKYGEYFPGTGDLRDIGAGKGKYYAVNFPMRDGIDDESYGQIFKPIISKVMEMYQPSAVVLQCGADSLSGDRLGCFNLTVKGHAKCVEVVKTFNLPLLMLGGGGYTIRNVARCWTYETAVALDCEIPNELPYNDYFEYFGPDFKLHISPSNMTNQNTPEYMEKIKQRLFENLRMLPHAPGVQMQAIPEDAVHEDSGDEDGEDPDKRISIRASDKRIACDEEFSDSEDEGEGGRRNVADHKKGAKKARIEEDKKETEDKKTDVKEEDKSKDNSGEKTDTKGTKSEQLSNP
Give bare numbers, as −log10 of the molar value.

C/C=C1\NC(=O)[C@@H](CS)NC(=O)[C@@H](C(C)C)NC(=O)C[C@@H](/C=C/CCS)OC(=O)[C@H](C(C)C)NC1=O : 8.41

Next molecule, please.
Request: Suppose we examine the molecule C/C=C1\NC(=O)[C@@H](CSC)NC(=O)[C@@H](C(C)C)CC(=O)C[C@@H](/C=C/CCSC)OC(=O)[C@H](C(C)C)NC1=O ; what pIC50 value has been reported?
Result: 5.48

* * *

- System Under Test: Histone deacetylase
- Set-up: species or system Rattus norvegicus
- Description: Inhibitory concentration against rat liver Histone deacetylase
Measured Parameter: IC50

Here is how some compounds turned out for IC50.
CN(C)c1ccc(C(=O)NCCCCCC(=O)NO)cc1 : 0.244 µM
O=C(CCCCCCC(=O)c1ccccc1)NO : 0.27 µM
O=C(CCCCCNC(=O)c1ccc([N+](=O)[O-])cc1)NO : 1.566 µM
O=C(CCCCCNC(=O)c1ccc(-c2ccccc2)cc1)NO : 0.265 µM

Hi, could you look up IC50 for each item in my list?
1. CC(C)C[C@H]1C(=O)N2C(=O)[C@@H]1CCCCOc1ccc(cc1)C[C@H]2C(=O)NCCCCCC(=O)NO
2. CN(C)c1ccc(C(=O)NCCCCCCC(=O)NO)cc1
3. O=C(CCCCCNC(=O)c1ccc(Cl)cc1)NO
4. CC(C)C[C@H]1C(=O)N[C@H](C(=O)NCCCCCC(=O)NO)Cc2ccc(cc2)OCCCC[C@H]1C(=O)OC(C)(C)C
5. CN(C)c1ccc(C(=O)NCCCCC(=O)NO)cc1

Result:
0.038 µM
0.046 µM
0.369 µM
2.1 µM
> 10 µM

Hi, could you look up IC50 for each item in my list?
1. CN(C)c1ccc(C(=O)NCCCCCCCC(=O)NO)cc1
2. O=C(CCCCCN1C(=O)c2ccccc2C1=O)NO

Result:
1. 0.145 µM
2. 0.515 µM

* * *

- Protocol Details: Inhibitory concentration against mixed human Histone deacetylase 1, Histone deacetylase 2 and Histone deacetylase 3
Measured Parameter: pIC50
One number for each entry, as −log10 of the molar value.

Request: Suppose we examine the compound N#Cc1ccc(-c2ccc(OCCCCCCC(=O)NO)cc2)cc1 ; what pIC50 value has been reported?
Result: 8.05

* * *

- System Under Test: Histone deacetylase
- Assay type: protein assay, Homo sapiens
- Description: Inhibitory concentration against histone deacetylase
What IC50 was measured for each of the following?
Give bare numbers, in nM.

Here is how some molecules turned out for IC50.
Cn1cc(C(=O)c2ccc([N+](=O)[O-])cc2)cc1/C=C/C(=O)NO : 3900
Cn1cc(C(=O)c2ccc(Cl)cc2)cc1/C=C/C(=O)NO : 2400

Next molecule, please.
Request: Suppose we examine the molecule O=C(NO)c1ccc(CNC(=O)c2cccc3ccccc23)cc1 ; what IC50 value has been reported?
Result: 830

* * *

- System Under Test: Histone deacetylase
- Type: protein assay, Homo sapiens
- Description: Inhibitory concentration against human histone deacetylase
What IC50 was measured for each of the following?
Numbers only, in nM.

Here is how some molecules turned out for IC50.
O=C(CCCCCCNC(=O)c1cc2cc(Cl)ccc2o1)NO : 15
COc1ccc2oc(C(=O)NCCCCCCC(=O)NO)cc2c1 : 15
O=C(CCCCCCNC(=O)c1ccccn1)NO : 1680
CC1c2ccccc2CC1C(=O)NCCCCCCC(=O)NO (stereo unspecified) : 732
O=C(CCCCCCNC(=O)c1cc2cc(F)ccc2[nH]1)NO : 5.4

Hi, could you look up IC50 for each item in my list?
1. COc1cccc2[nH]c(C(=O)NCCCCCCC(=O)NO)cc12
2. O=C(CCCCCCC(=O)C(F)(F)F)Nc1cccc(-c2ccccc2)c1
3. O=C(CCCCCCNC(=O)c1c[nH]c2ccccc12)NO
4. O=C(CCCCCCNC(=O)C1Cc2ccccc2O1)NO (stereo unspecified)
5. O=C(CCCCCCNC(=O)c1cc2cc(Br)ccc2[nH]1)NO
6. O=C(CCCCCCNC(=O)c1ccc2cc[nH]c2c1)NO

Result:
1. 3.1
2. 380
3. 37.5
4. 29.6
5. 3.5
6. 56.5
